Reference source: PubChem BioAssay (NCI)

Test system: SK-MEL-5 melanoma
method: NCI tumour cell line growth inhibition, 48 h
endpoint: TGI

molecule	endpoint	observed
COC1=CC(=O)c2c(O)c3c(c(O)c2C1=O)C=C(C)OC3O (centres undefined)	TGI	0.66 µM
Cc1ccc(S(=O)(=O)Nn2c(S)c(C#N)c(-c3ccc([N+](=O)[O-])cc3)c(C#N)c2=O)cc1	TGI	29.5 µM
c1ccc(CSc2nnc3c4ccccc4c4ccccc4c3n2)cc1	TGI	> 100 µM
COCCNc1cc(NC(=O)N2CCCc3cc(CN4CCN(C)CC4=O)c(C=O)nc32)ncc1C#N	TGI	> 50 µM
C[C@]12CCc3sc(Nc4ccc(O)cc4)nc3C1=CC[C@@H]1[C@@H]2CC[C@]2(C)C(=O)CC[C@@H]12	TGI	31.9 µM
Cc1cn2c(/C=N/Nc3ccccn3)c(-c3ccc(Cl)c([N+](=O)[O-])c3)nc2s1	TGI	> 50 µM
O=C(Nc1nc(=S)c2c(ncn2CCO)[nH]1)c1ccccc1	TGI	> 100 µM
c1ccc(P(CCP(CCP(c2ccccc2)c2ccccc2)c2ccccc2)CCP(c2ccccc2)c2ccccc2)cc1 (centres undefined)	TGI	> 10 µM
Cn1cc(-c2ccc(-c3cn(C)c4ccc(Cl)cc34)s2)c2cc(Cl)ccc21	TGI	> 100 µM
